Documented Potency across a set of compounds
experiment: Confirmatory screen NINDS Rhodamine qHTS for Zika virus inhibitors (AID 1347161); details: purified enzyme assay, Rhodamine110 substrate fluorescence, 15 min; series mostly up to 114 µM; further: potency means the concentration at half of the fitted maximal effect; nearly all actives have a fitted effect of over 60% in size
Inconclusive results are not listed. The source made the active and inactive calls. The call rests on the fitted dose curve; in most records, active means well fitted inhibition curve with a large enough effect; inconclusive means small, poorly fitted or top-dose-only effect; inactive means no such curve, though single readings can be large or run the other way.

C=CC1(C)C=C2CC[C@H]3[C@@](C)(C(=O)O)CCC[C@]3(C)C2CC1 (some centres undefined)	9.67 µM (active)

Which Potency reading was recorded for the compound `COc1cc(Nc2nc3ccccc3nc2NS(=O)(=O)c2cccc(NC(=O)c3ccc(C)c(OC)c3)c2)cc(OC)c1` ?
1.97 µM (active)

Follow-up entry: O=C(Nc1ccccc1)Nc1ccc(-c2ccc(C(=O)C3CCCC3C(=O)O)cc2)cc1 (centres undefined)
3.93 µM (active)

Follow-up entry: `CC1(C)[C@H]2C[C@H](C/C=C\CCCC(=O)O)[C@@H](NC(=O)c3csc4ccc(O)cc34)[C@@H]1C2`
31.2 µM (active)
